assayDetails: Acute toxicity in mice
testContext: mouse, in vivo, ip; single intraperitoneal administration, 5 ddY mice, 14 days observation, Beherns Karber's method
reportedMetric: LD50 at 336 h

input: What does the data say about its LD50 at 336 h? Entry: C=C(CCC1(C)OC2O[C@@H]3C[C@H]1[C@]21CC[C@@H]2[C@@]4(C)CC[C@H](O)C[C@@H]4C[C@@H]4O[C@@]42[C@H]31)C(C)C (stereo partly shown)
output: > 200 mg/kg
